Recorded values, source patent US10583137B2.

# reported inhibition at 0.4 µM; entries follow
# tgt: DAGLα (hDAGLα-FLAG) (Homo sapiens (Human))
# Sequence (Q9Y4D2 whole entry): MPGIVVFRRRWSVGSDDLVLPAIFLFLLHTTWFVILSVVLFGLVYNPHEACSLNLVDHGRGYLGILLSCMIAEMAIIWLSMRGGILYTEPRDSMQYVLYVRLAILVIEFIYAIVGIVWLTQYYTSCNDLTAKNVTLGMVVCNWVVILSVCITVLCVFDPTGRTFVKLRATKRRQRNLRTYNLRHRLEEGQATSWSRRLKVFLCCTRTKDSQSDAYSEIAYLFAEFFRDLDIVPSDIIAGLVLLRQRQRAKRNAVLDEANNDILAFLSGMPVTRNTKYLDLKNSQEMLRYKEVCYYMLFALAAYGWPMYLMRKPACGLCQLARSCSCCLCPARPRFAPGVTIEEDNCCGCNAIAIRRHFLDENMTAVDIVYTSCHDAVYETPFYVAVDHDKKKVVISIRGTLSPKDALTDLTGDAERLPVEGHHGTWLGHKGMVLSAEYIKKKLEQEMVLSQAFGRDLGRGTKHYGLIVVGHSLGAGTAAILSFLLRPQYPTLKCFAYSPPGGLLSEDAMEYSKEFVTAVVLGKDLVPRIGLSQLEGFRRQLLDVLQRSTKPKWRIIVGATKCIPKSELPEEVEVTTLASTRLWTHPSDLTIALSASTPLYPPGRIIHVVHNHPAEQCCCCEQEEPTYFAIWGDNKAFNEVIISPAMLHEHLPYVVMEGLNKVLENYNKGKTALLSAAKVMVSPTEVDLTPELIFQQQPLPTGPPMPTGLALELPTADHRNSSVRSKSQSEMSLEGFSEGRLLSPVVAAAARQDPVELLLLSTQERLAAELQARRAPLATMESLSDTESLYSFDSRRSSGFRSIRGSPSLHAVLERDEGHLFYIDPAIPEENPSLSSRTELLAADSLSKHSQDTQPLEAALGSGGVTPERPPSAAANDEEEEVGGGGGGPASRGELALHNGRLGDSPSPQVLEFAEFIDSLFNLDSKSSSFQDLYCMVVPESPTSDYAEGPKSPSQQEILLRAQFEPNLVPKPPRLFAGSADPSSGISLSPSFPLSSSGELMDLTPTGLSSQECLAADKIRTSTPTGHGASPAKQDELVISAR
# experiment_summary: competitive ABPP, membrane proteome of transfected HEK293T cells
# Format: biochemical
# details: 0.4 μM; read-out: DAGLα % inh. 0.4 μM
# Method: Compounds 19 and 20 were tested for in vitro inhibition of DAGLα and DAGLβ as measured by competitive activity-based protein profiling (ABPP) of […] using a HT-01 probe (targets DAGLα and DAGLβ) and a FP-Rh probe (targets serine hydrolases). […] The percentage of DAGL activity remaining in the assayed samples was determined by measuring the integrated optical intensity of the fluorescent protein bands of the Western Blot using image lab 4.1. […]
assay_endpoint: inhibition at 0.4 µM

INSERT INTO results (compound, reported) VALUES
  ('CC(C)(C)OC(=O)N1CCN(C(=O)n2cc(-c3ccc(OC(F)(F)F)cc3)nn2)[C@H](Cc2ccccc2)C1 [Compound 100]', '≥ 75%'),
  ('CC(C)OC(=O)N1CCN(C(=O)n2cc(-c3ccc(OC(F)(F)F)cc3)nn2)C(Cc2ccccc2)C1 (stereo not shown) [Compound 96]', '≥ 75%'),
  ('COC(=O)N1CCN(C(=O)n2cc(-c3ccc(OC(F)(F)F)cc3)nn2)C(Cc2ccccc2)C1 (stereo not shown) [Compound 95]', '≥ 75%'),
  ('CC(C)(C)OC(=O)N1CCN(C(=O)n2ncc(-c3ccc(OC(F)(F)F)cc3)n2)C(Cc2ccccc2)C1 (stereo not shown) [Compound 99]', '0 to 25%'),
  ('CC(C)OC(=O)N1CCN(C(=O)n2ncc(-c3ccc(OC(F)(F)F)cc3)n2)C(Cc2ccccc2)C1 (stereo not shown) [Compound 97]', '25 to 50%'),
  ('CC(C)(C)OC(=O)N1CCN(C(=O)n2cc(-c3ccc(OC(F)(F)F)cc3)nn2)[C@@H](Cc2ccccc2)C1 [Compound 102]', '≥ 75%'),
  ('COC(=O)N1CCN(C(=O)n2ncc(-c3ccc(OC(F)(F)F)cc3)n2)C(Cc2ccccc2)C1 (stereo not shown) [Compound 98]', '0 to 25%');
